Origin of measurements: paper PMC5463557

target: human wild-type CFTR (Homo sapiens); experiment: Fluorescence plate reader assay of CFTR function; assay type: cell-based; details: plate reader assay, structure-activity discussion
Sequence (P13569 whole entry): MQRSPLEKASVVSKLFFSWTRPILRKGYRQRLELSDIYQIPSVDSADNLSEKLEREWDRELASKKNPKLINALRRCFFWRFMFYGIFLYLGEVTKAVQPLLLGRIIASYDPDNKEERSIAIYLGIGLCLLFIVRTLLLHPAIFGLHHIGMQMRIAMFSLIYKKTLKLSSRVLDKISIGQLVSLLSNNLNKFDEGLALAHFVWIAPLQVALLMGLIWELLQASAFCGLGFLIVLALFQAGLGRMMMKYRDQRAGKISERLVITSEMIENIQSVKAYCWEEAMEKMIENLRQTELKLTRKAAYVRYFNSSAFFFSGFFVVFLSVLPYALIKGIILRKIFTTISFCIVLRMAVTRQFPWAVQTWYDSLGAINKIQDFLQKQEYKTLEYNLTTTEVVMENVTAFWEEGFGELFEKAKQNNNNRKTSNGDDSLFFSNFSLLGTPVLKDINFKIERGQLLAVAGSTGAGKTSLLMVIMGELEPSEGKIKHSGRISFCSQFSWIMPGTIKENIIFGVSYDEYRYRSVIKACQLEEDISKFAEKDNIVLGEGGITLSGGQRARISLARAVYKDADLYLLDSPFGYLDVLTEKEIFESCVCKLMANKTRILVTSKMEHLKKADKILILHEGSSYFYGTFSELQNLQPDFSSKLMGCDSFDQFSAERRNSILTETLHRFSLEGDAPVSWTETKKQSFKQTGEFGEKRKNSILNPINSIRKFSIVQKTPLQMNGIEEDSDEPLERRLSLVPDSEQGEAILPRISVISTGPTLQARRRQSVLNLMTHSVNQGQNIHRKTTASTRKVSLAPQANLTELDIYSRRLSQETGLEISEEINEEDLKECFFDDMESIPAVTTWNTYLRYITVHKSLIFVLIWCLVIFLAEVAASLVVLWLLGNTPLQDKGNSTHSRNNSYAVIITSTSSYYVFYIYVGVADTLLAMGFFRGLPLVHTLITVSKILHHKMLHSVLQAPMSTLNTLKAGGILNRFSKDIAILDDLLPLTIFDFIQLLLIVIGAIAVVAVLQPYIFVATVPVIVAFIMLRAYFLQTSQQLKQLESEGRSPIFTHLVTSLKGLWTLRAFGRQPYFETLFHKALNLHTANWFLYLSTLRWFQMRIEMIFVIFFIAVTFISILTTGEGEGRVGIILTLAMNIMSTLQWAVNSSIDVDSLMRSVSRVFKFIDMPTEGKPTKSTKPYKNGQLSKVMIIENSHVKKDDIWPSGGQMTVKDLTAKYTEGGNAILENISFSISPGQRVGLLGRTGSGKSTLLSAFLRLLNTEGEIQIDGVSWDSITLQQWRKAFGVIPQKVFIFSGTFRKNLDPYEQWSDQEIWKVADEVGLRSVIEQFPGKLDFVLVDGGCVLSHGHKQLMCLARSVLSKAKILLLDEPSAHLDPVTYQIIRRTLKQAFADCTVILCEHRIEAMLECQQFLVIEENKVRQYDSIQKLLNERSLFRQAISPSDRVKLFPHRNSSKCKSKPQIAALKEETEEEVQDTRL
quantity-kind: CFTR activation activity (in words)

Here is how some compounds turned out for CFTR activation activity (in words).
# compound, tested-target, CFTR activation activity (in words)
records = [
    ("O=c1c(-c2ccccc2[N+](=O)[O-])nc2ccccc2n1Cc1ccccc1 [1d]", "human wild-type CFTR (Homo sapiens)", "reduced activity"),
    ("O=c1c(-c2cccc([N+](=O)[O-])c2)nc2cc(F)c(F)cc2n1Cc1ccccc1 [2g]", "human wild-type CFTR (Homo sapiens)", "reduced activity"),
    ("O=c1c(-c2cccc([N+](=O)[O-])c2)nc2cc(Cl)c(Cl)cc2n1Cc1ccccc1 [2d]", "human wild-type CFTR (Homo sapiens)", "reduced activity"),
    ("O=c1c(-c2cccc([N+](=O)[O-])c2)nc2ccccc2n1Cc1ccccn1 [3h]", "human wild-type CFTR (Homo sapiens)", "comparable activity"),
    ("O=c1c(-c2ccc(C(F)(F)F)cc2)nc2ccccc2n1Cc1ccccc1 [1f]", "human wild-type CFTR (Homo sapiens)", "low activity"),
    ("O=c1c(-c2cccc(Br)c2)nc2ccccc2n1Cc1ccccc1 [1g]", "human wild-type CFTR (Homo sapiens)", "low activity"),
    ("O=c1c(-c2cccc([N+](=O)[O-])c2)nc2ccccc2n1Cc1cccs1 [3j]", "human wild-type CFTR (Homo sapiens)", "comparable activity"),
    ("O=c1c(-c2ccc([N+](=O)[O-])cc2)nc2ccccc2n1Cc1ccccc1 [1e]", "human wild-type CFTR (Homo sapiens)", "reduced activity"),
    ("Cc1cc2nc(-c3cccc([N+](=O)[O-])c3)c(=O)n(Cc3ccccc3)c2cc1C [2i]", "human wild-type CFTR (Homo sapiens)", "reduced activity"),
    ("COC(=O)c1ccc([N+](=O)[O-])c(-c2nc3ccccc3n(Cc3ccccc3)c2=O)c1 [1a]", "human wild-type CFTR (Homo sapiens)", "very low activity"),
]

// sample O=c1c(-c2cccc([N+](=O)[O-])c2)nc2ccccc2n1Cc1ccco1 [3i] , its CFTR activation activity (in words) was comparable activity

// sample O=C(O)c1ccc([N+](=O)[O-])c(-c2nc3ccccc3n(Cc3ccccc3)c2=O)c1 [1b] , its CFTR activation activity (in words) was very low activity

// sample O=c1c(-c2ccc(F)c([N+](=O)[O-])c2)nc2ccccc2n1Cc1ccccc1 [1i] , its CFTR activation activity (in words) was reduced activity
